Assay: Keto-enol/diketo tautomer amounts by 1H NMR
Assay type: physicochemical
Conditions: molar percentage, MeOD-d4, 298 K, for 2 includes KE form of the Z isomer (6%)
Description: NMR spectra were recorded by means of a Bruker Biospin FT-NMR AVANCE III HD (600 MHz) spectrometer equipped with a CryoProbe BBO H&F 5 mm in inverse detection. The nominal frequencies were 150.90 MHz for ^13C and 600.13 MHz for ^1H, respectively. For each sample, 1–5 mg were weighed and diluted up to 0.6 mL with a proper solvent in a 5 mm NMR tube; 90° pulse was calibrated for each sample, and standard NMR parameters were used to achieve quantitative results (relaxation delay, 10 s). […]
readout-name: KE (%) amount of keto–enol form

| sample-smiles | readout-name | reported-measurement |
| --- | --- | --- |
| COc1cc(/C=C/C(=O)C(CCC(=O)O)C(=O)/C=C/c2ccc(O)c(OC)c2)ccc1O | KE (%) amount of keto–enol form | 25 |
| O=C(/C=C/c1ccc(O)cc1)C(CCCN1C(=O)c2ccccc2C1=O)C(=O)/C=C/c1ccc(O)cc1 | KE (%) amount of keto–enol form | 45 |

(A) O=C(O)CCC(C(=O)/C=C/c1ccc(O)cc1)C(=O)/C=C/c1ccc(O)cc1
(B) COc1cc(/C=C/C(=O)C(CCCN2C(=O)c3ccccc3C2=O)C(=O)/C=C/c2ccc(O)c(OC)c2)ccc1O
Data request: From the items above, decide which of A and B has the lower KE (%) amount of keto–enol form reading. State the label of the item chosen.
Data returned: A
(A: 25%, B: 47%)

###

test: Kinetic stability of ligands in simulated physiological conditions (UV-Vis); format: physicochemical; conditions: PBS, pH 7.4, 37 °C in darkness, 4 h
readout-name: Stability: percentage of the residual ligand after 4 h (%)

(a) O=C(/C=C/c1ccc(O)cc1)C(CCCN1C(=O)c2ccccc2C1=O)C(=O)/C=C/c1ccc(O)cc1
(b) O=C(O)CCC(C(=O)/C=C/c1ccc(O)cc1)C(=O)/C=C/c1ccc(O)cc1
Data request: Hi team, can someone confirm which has the larger Stability: percentage of the residual ligand after 4 h: a or b ? Thanks. State the label of the item chosen.
Data returned: b

(a) COc1cc(/C=C/C(=O)C(CCCN2C(=O)c3ccccc3C2=O)C(=O)/C=C/c2ccc(O)c(OC)c2)ccc1O
(b) COc1cc(/C=C/C(=O)C(CCC(=O)O)C(=O)/C=C/c2ccc(O)c(OC)c2)ccc1O
Data request: Hi team, can someone confirm which has the larger Stability: percentage of the residual ligand after 4 h: a or b ? Thanks. State the label of the item chosen.
Data returned: b
